Where these numbers come from: patent US20190202907A1

Property: kon; scope: individual binders
# STUDY SYSTEM: cyno ST2L (cyno)
# ASSAY METHOD TEXT: affinity table; method not stated
# output: bare number, implied unit M⁻¹ s⁻¹

Some binders with known kon results, for comparison:
BINDER	kon [M⁻¹ s⁻¹]
STLM217 (antibody, from another filing, V domains shown) VH: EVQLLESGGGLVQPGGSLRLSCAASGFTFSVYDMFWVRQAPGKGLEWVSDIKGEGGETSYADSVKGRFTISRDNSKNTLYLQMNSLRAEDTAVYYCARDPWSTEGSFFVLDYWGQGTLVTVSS VL: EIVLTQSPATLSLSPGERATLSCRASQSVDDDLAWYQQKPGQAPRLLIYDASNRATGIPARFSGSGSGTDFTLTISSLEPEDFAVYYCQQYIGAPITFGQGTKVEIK	3.81e+07
STLM207 (antibody, from another filing, V domains shown) VH: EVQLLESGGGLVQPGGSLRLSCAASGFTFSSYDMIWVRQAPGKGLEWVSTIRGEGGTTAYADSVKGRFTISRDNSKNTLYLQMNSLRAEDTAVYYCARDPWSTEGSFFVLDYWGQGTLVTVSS VL: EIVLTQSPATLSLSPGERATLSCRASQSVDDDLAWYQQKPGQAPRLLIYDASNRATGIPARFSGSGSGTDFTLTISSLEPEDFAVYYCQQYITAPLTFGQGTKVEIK	1e+08
STLM206 (antibody, from another filing, V domains shown) VH: EVQLLESGGGLVQPGGSLRLSCAASGFTFSIYDMIWVRQAPGKGLEWVSTIRGEGGSTYYADSVKGRFTISRDNSKNTLYLQMNSLRAEDTAVYYCARDPWSTEGSFFVLDYWGQGTLVTVSS VL: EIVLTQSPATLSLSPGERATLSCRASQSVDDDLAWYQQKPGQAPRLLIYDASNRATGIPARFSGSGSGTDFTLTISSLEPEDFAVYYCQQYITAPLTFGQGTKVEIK	9.4e+07
STLM210 (antibody, from another filing, V domains shown) VH: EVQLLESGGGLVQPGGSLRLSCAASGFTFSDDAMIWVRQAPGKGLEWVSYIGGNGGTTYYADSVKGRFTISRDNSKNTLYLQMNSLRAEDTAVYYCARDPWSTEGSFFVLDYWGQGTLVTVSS VL: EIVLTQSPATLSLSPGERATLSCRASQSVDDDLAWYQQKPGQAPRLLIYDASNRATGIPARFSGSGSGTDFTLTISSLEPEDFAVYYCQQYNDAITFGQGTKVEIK	5.7e+07
STLM108 (antibody, from another filing, V domains shown) VH: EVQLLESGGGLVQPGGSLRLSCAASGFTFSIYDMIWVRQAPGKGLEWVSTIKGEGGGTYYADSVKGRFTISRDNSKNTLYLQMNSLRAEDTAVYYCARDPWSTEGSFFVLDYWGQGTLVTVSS VL: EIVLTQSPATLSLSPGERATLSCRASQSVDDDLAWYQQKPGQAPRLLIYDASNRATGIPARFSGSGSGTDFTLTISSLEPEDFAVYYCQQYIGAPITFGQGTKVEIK	2.05e+07

// sample STLM214 (antibody, from another filing, V domains shown) VH: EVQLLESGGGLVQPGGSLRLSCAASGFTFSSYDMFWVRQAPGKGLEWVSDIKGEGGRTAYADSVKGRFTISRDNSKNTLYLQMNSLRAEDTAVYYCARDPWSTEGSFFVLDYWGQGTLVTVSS VL: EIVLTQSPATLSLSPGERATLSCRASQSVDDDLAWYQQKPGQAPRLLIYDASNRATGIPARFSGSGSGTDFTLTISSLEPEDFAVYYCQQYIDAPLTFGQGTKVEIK , its kon was 7.2e+06

// sample STLM229 (antibody, from another filing, V domains shown) VH: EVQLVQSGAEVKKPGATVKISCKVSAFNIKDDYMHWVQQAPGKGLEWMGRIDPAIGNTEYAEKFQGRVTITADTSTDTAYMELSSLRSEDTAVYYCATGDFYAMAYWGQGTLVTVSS VL: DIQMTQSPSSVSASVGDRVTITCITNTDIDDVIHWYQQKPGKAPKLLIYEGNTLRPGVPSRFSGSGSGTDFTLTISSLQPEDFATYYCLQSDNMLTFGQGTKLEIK , its kon was 1e+08
